Every entry's value here was drawn from PubChem BioAssay (NCI).

Tested on: MOLT-4 leukemia
PROTOCOL_NOTES: NCI tumour cell line growth inhibition, 48 h
In this section, each of the molecules is paired with its reported GI50.
MEASURED_ENDPOINT: GI50

>>> value_measured("CC(=O)O/N=C1/C(c2c(O)[nH]c3cc(Br)ccc23)=Nc2ccccc21")
"1.78 µM"
>>> value_measured("O=C(Cc1cccc(OC(F)(F)F)c1)Nc1ccc(CCCCc2nnc(NC(=O)Cc3ccccn3)s2)nn1")
"5.49 µM"
>>> value_measured("Cc1c(C)[n+](=O)c(C)c(C)n1[O-]")
"> 100 µM"

* * *

Test system: SK-MEL-28 melanoma
PROTOCOL_NOTES: NCI tumour cell line growth inhibition, 48 h
In this section, each of the molecules is paired with its reported TGI.
MEASURED_ENDPOINT: TGI

>>> value_measured("CN1CC(C(=O)C2C(=O)c3ccccc3C2=O)C(=O)C(=O)C(C(=O)C2C(=O)c3ccccc3C2=O)C1 (stereo not given)")
"> 100 µM"
>>> value_measured("NS(=O)(=O)c1cccc(N=Cc2c(O)[nH]c3ccccc23)c1")
"> 25 µM"
>>> value_measured("O=C1COc2ccc([N+](=O)[O-])cc2C(=O)C1")
"> 10 µM"
>>> value_measured("Cc1cccc(C2=NC(C)(C)C(C)(C)N=C2c2cccc(C)n2)n1")
"> 100 µM"
>>> value_measured("CN(NC(=O)CCCl)C1=NCCCCN1")
"> 100 µM"
